B1: Homeobox protein cut-like 2, residues 895 to 963; numbered along this chain, O14529 (parent)
chain: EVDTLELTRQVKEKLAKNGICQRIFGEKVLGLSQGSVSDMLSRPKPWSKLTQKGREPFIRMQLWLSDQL

Variants of: B1
Experiment: abundance fitness (aPCA) (normalised: wild type 0, dead -1); higher = more abundant; growth selection in yeast, the domain comes from the species named
Details: Homo sapiens
Classify as follows. Reported abundance fitness greater than or equal to -0.1: true. Reported abundance fitness below: false.

mutation: C21A
label-value: true

mutation: I20V
label-value: false

mutation: M40A
label-value: false

mutation: I24E
label-value: true

mutation: S42K
label-value: true

[in] Reported abundance fitness at or above -0.1? E56L
[out] false

[in] Can D39A be said to have abundance fitness at or above -0.1?
[out] true

[in] Confirm if abundance fitness reported for the variant L50T is -0.1 or above.
[out] false

[in] Threshold query (abundance fitness >= -0.1) on S33Q
[out] true

[in] Given P57E , state whether its abundance fitness is at least -0.1.
[out] false

[in] // inclusive: abundance fitness at least -0.1? input: C21S
[out] true
